Test system: MDA-MB-436
Experiment: cells
Conditions: Homo sapiens, MDA-MB-436, 72 h, read-out: IC50 (nM) MDA-MB-436
observation-type: IC50 (nM)
Could you give me the number in nM? Just the number is fine.

-- ask Fill in IC50 for record Cc1sc2c(c1C)C(c1ccc(Cl)cc1)=N[C@@H](CC(=O)NCCCCCCCCNC(=O)COc1cccc3c1C(=O)N(C1CCC(=O)NC1=O)C3=O)c1nnc(C)n1-2 (stereo partly shown) [dBET6]
-- reply 39.6

----------
Reported IC50 values are given for each entry in this list.
Target: LRRK2 (Homo sapiens, UniProt Q5S007)
Sequence (Q5S007 whole entry, species assumed): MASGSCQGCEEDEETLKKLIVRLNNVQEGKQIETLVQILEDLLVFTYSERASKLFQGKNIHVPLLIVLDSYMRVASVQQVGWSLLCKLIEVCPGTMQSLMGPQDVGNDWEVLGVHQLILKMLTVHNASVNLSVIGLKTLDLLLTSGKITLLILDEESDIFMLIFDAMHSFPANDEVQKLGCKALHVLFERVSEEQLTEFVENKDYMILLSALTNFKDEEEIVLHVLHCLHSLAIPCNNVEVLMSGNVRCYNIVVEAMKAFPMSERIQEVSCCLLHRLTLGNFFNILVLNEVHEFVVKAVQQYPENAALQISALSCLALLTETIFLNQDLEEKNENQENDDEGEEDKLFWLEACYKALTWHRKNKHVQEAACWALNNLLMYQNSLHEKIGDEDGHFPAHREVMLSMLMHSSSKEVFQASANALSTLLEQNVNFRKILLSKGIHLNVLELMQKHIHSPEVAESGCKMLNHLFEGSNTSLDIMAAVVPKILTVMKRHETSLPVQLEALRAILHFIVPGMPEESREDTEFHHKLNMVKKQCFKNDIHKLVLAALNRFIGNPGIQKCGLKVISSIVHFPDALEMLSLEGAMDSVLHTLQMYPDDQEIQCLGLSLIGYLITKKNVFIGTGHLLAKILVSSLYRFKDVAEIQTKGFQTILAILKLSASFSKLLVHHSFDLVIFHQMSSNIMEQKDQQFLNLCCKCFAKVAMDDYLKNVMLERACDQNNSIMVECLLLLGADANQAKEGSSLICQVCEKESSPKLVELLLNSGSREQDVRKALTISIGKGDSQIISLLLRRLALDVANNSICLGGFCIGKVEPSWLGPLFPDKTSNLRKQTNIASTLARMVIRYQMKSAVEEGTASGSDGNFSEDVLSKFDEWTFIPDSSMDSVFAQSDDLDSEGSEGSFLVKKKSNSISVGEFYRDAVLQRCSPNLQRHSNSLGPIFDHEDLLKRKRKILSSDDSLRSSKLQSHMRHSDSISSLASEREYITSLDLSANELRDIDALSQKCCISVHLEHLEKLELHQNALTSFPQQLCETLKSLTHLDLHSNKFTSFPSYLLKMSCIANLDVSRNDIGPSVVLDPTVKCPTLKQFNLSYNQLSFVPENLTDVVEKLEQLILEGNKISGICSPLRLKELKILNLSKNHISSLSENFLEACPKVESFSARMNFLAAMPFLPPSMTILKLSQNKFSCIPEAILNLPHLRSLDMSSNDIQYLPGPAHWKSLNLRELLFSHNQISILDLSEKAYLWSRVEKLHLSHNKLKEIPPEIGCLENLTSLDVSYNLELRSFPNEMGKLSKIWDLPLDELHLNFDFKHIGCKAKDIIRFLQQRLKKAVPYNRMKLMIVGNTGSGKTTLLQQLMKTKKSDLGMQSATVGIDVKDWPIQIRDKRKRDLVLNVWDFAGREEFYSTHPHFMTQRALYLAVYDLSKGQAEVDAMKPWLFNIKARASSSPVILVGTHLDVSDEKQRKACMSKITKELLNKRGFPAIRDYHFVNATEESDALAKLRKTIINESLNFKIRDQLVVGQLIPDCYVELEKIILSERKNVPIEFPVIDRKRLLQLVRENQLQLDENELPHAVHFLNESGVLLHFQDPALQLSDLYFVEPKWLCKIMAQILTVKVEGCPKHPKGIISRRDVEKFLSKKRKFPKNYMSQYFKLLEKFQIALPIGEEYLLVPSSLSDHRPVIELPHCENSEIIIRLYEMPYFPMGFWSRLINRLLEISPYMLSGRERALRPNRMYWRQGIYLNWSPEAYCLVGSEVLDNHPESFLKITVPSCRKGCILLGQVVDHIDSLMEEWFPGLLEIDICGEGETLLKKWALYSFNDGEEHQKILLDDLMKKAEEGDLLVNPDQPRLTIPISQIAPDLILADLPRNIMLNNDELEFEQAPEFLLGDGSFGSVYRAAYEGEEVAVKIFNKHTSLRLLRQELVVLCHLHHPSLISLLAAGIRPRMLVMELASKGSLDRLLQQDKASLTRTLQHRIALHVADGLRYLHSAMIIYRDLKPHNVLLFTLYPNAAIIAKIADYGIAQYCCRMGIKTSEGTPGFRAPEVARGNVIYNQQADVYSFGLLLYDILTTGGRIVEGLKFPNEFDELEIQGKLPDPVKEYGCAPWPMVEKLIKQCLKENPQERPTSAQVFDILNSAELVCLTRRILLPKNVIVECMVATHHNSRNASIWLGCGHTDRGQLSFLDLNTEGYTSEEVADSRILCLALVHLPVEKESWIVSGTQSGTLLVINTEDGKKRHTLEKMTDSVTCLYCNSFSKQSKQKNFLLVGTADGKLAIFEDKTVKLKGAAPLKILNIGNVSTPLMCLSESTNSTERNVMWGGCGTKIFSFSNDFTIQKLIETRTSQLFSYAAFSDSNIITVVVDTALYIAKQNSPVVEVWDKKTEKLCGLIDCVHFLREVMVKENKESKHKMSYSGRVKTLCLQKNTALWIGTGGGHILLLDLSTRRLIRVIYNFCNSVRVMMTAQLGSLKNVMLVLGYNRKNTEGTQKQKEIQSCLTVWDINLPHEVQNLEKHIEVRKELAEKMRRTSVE
Assay: LRRK2 IC50 (Table 4)
Assay type: biochemical
Could you give me the number in nM? Just the number is fine.

COc1cc(C(=O)NCCCCNC(=O)COc2cccc3c2C(=O)N(C2CCC(=O)NC2=O)C3=O)ccc1Nc1ncc2c(n1)N(C)c1ccccc1C(=O)N2C (centres unmarked) [dBET11]: 7.3

-- ask Fill in IC50 for record COc1cc(C(=O)NCCCOCCOCCOCCCNC(=O)COc2cccc3c2C(=O)N(C2CCC(=O)NC2=O)C3=O)ccc1Nc1ncc2c(n1)N(C)c1ccccc1C(=O)N2C (centres unmarked) [dBET12]
-- reply 32

----------
Target: BRD4 adjoined to nanoluciferase (Nluc) (Homo sapiens, UniProt O60885+Q96SW2)
Construct: expressed in transfected cells
Test: BRD4 Dual Luciferase Assay;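 note: transduced reporter cells exposed to compound for 4 h, then Nluc and Fluc luminescence read, each normalized to DMSO controls and expressed as Nluc/Fluc ratio per well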
Type: cell-based
Conditions: 4 hours; read-out: max degradation (dual luc)
observation-type: Dmax (%)
Could you give me the number in %? Just the number is fine.

In the examples that follow, each entry is paired with its recorded Dmax.
Cc1sc2c(c1C)C(c1ccc(Cl)cc1)=N[C@@H](CC(=O)NCCOCCOc1cccc3c1C(=O)N(C1CCC(=O)NC1=O)C3=O)c1nnc(C)n1-2 (some centres unmarked): 30
Cc1cnc(Nc2ccc(N3CCN(C(=O)CCCNC(=O)COc4cccc5c4C(=O)N(C4CCC(=O)NC4=O)C5=O)CC3)cc2)nc1Nc1cccc(S(=O)(=O)NC(C)(C)C)c1 (centres unmarked): 7.04
COC(=O)C[C@@H]1N=C(c2ccc(Cl)cc2)c2c(sc(C)c2C(=O)NCCCCNC(=O)COc2cccc3c2C(=O)N(C2CCC(=O)NC2=O)C3=O)-n2c(C)nnc21 (some centres unmarked): 41.7
Cc1c(C(=O)NCCCCNC(=O)COc2cccc3c2C(=O)N(C2CCC(=O)NC2=O)C3=O)sc2c1C(c1ccc(Cl)cc1)=N[C@@H](CC(=O)NCCCN1CCN(C)CC1)c1nnc(C)n1-2 (some centres unmarked): 78.5
Cc1c(CC#N)sc2c1C(c1ccc(Cl)cc1)=N[C@@H](CC(=O)NCCCCNC(=O)COc1cccc3c1C(=O)N(C1CCC(=O)NC1=O)C3=O)c1nnc(C)n1-2 (some centres unmarked): -1.3
Cc1cnc(Nc2ccc(N3CCN(C(=O)CCC(=O)NCCCCCCCCNC(=O)COc4cccc5c4C(=O)N(C4CCC(=O)NC4=O)C5=O)CC3)cc2)nc1Nc1cccc(S(=O)(=O)NC(C)(C)C)c1 (centres unmarked): 9.96
Cc1sc2c(c1C)C(c1ccc(Cl)cc1)=N[C@@H](CC(=O)NCCOCCOCCNC(=O)COc1cccc3c1C(=O)N(C1CCC(=O)NC1=O)C3=O)c1nnc(C)n1-2 (some centres unmarked): 50.4
Cc1sc2c(c1C)C(c1ccc(Cl)cc1)=N[C@@H](CC(=O)NCCCCC(=O)Nc1cccc3c1CN(C1CCC(=O)NC1=O)C3=O)c1nnc(C)n1-2 (some centres unmarked): 10
Cc1sc2c(c1C)C(c1ccc(Cl)cc1)=N[C@@H](CC(=O)NCCCCCCOc1cccc3c1C(=O)N(C1CCC(=O)NC1=O)C3=O)c1nnc(C)n1-2 (some centres unmarked): 19

-- ask Fill in Dmax for record Cc1sc2c(c1C)C(c1ccc(Cl)cc1)=N[C@@H](CC(=O)NCCCCCC(=O)NCc1cccc3c1C(=O)N(C1CCC(=O)NC1=O)C3=O)c1nnc(C)n1-2 (some centres unmarked)
-- reply 46.4
